# system-name: hNav 1.1 channel (Homo sapiens)
# Construct: expressed in transfected cells
# test-summary: Block of cloned hNav1.1 channel in CHO cells (IonWorks Quattro)
# Format: cell-based
# settings: hNav1.1 in CHO cells; tonic block (TP1); read-out: IC50 Tonic block
Please use 1.0 for IC50 under 200 µM and 0.0 for everything else, ties included.

Query: Quick check: IC50 of Cc1cccc(C)c1OCC(C)N.Cl (racemic) [Mexiletine hydrochloride, reference compound] under 200 µM?
Result: 1.0

Query: Now consider Cc1cccc(C)c1OCC(C)NC(=O)c1ccncc1 (stereo not drawn) [Mexiletine isonicotinic acid amide] and answer again.
Result: 0.0

Query: Now consider Cc1cccc(C)c1OCC(C)NC(=O)[C@@H](N)CCC(N)=O (stereo partly drawn) [Mexiletine glutamine amide] and answer again.
Result: 0.0

Query: Now consider Cc1cccc(C)c1OCC(C)NC(=O)CCN (stereo not drawn) [Mexiletine β alanine amide] and answer again.
Result: 0.0

Query: Now consider Cc1cccc(C)c1OCC(C)NC(=O)c1cccnc1 (stereo not drawn) [Mexiletine nicotinic acid amide] and answer again.
Result: 0.0

Query: Now consider Cc1cccc(C)c1OCC(C)NC(=O)C(N)C1CC1 (stereo not drawn) [Mexiletine cyclopropyl glycine amide] and answer again.
Result: 0.0

Query: Now consider Cc1cccc(C)c1OCC(C)NC(=O)C1CCCCN1 (stereo not drawn) [Mexiletine pipecolic acid amide] and answer again.
Result: 1.0

Query: Now consider CNCC(=O)NC(C)COc1c(C)cccc1C (stereo not drawn) [Mexiletine sarcosine amide] and answer again.
Result: 1.0

Data provenance: patent US20110028552A1
